Each entry below carries its reported GI50.
# Test system: MDA-N
# assay.name: NCI tumour cell line growth inhibition, 48 h
Calls of active or inactive are those of the source. No stated cut-off is given here; in the data, active = GI50 up to about 1.1 µM and inactive = higher.

Observed GI50 on MDA-N for O=C1NC(=O)[C@@]2(CC[C@@H](O)C2)c2ccncc21 , please.
> 100 µM (inactive)

Check S=C1c2ccc(Cl)cc2-n2cnnc2C2CSCN12 (stereo unspecified) too.
63.1 µM (inactive)

Check CC(C)(C)NC(=O)C12C3C4C1C1C2C3C41C(=O)NC(C)(C)C (stereo unspecified) too.
> 100 µM (inactive)

Check O=C(/C=C/c1ccco1)CC(=O)/C=C/c1ccco1 too.
8.04 µM (inactive)

Check CCOC(=O)NC(Nc1ncccn1)(C(=O)OCC)C(F)(F)F (stereo unspecified) too.
> 100 µM (inactive)

# ---- query compound ----
Observed GI50 on MDA-N for CN(C)c1ccc(/N=N/c2ccccn2)cc1 , please.
33.7 µM (inactive)

* * *

# Test system: NCI-H522
# assay.name: NCI tumour cell line growth inhibition, 48 h
Calls of active or inactive are those of the source. No stated cut-off is given here; in the data, active = GI50 up to about 1.1 µM and inactive = higher.
Each entry below carries its reported GI50.

Need GI50, item O=C1NC(=O)[C@@]2(CC[C@@H](O)C2)c2ccncc21 [SESBANINE]
> 100 µM (inactive)

Check CCNC(=O)C(O)C1(O)CCC2[C@@H]3CCC4=CC(=O)C=C[C@]4(C)C3[C@@H](O)C[C@@]21C (stereo not given in full) too.
> 100 µM (inactive)

Check C=C1C(=O)OC2CC(C)C(C(CC(C)=O)OC(C)=O)=CCC12 (stereo not given) too.
1.73 µM (inactive)

# ---- query compound ----
Need GI50, item CCCC(C)n1c(C)nc2c1C(=O)c1ccccc1C2=O (stereo not given)
23.1 µM (inactive)

* * *

# Tested on: Malme-3M
# assay.name: NCI tumour cell line growth inhibition, 48 h
The source made the active and inactive calls. Rule as the data show it: active = GI50 up to about 1.1 µM and inactive = higher.
Bench note: report the call from active, inactive

See these solved cases before continuing.
Recorded call for CC(=O)[O-].[O-]c1c(Cl)cc(Cl)cc1/C=N/Nc1ccccn1.[Zn+2] ?
active

Check CNC=O too.
inactive

Check Fc1ccc(N2C(=S)SC(=N\c3ccccc3)/C2=N/c2ccccc2)cc1 too.
inactive

Check C/C(=C\c1ccccc1)C(O)S(=O)(=O)O (stereo not given) too.
inactive

Check COC(=O)CNC(=O)/C=C/[C@H](O[Si](C)(C)C(C)(C)C)[C@H](/C=C/C(=O)NCC(=O)OC)O[Si](C)(C)C(C)(C)C too.
inactive

Check O=C(c1ccccc1)[C@H]1Nc2ccc(Cl)cc2[C@H]2CCC[C@@H]12 too.
inactive

Check N#Cc1c(-c2ccccc2)c(C=O)c(=O)n2c1[nH]c1ccccc12 too.
inactive

Check CS(=O)(=O)O.[Ag] too.
inactive

---
Recorded call for C[Si](C)(C)OC1CC(=O)OC1n1cc(F)c(=O)[nH]c1=O (stereo not given) ?
inactive

Check COc1ccc(OC(=O)CC2Cc3cc(OC)c(OC)c(OC)c3-c3ccc(SC)c(=O)cc32)cc1 (stereo not given) too.
active

* * *

# System: HCT-15
Each entry below carries its reported GI50.
Provide only the numeric value, understood in µM.

Solved entries (count: 2):
Need GI50, item CCOc1ccccc1NC(=O)C(C#N)C1=C(Cl)C(=O)c2ccccc2C1=O (stereo unspecified)
1.47

Check O/N=C1\C=Cc2nn(-c3ccccc3)nc2\C1=N/O too.
4.38

---
Need GI50, item Clc1ccc(C[P+](c2ccccc2)(c2ccccc2)c2ccccc2)c(Cl)c1
24

Check S=P1(c2ccccc2)Nc2ccc(Cl)cc2N1 (stereo unspecified) too.
58.5

Check O=C1/C(=C/c2ccc(O)cc2)CCC1CNc1ccccc1 (stereo unspecified) too.
5.05

* * *

# Test system: A549
# assay.name: NCI tumour cell line growth inhibition, 48 h
Calls of active or inactive are those of the source. Rule as the data show it: active = GI50 up to about 1.1 µM and inactive = higher.
recorded.endpoint: GI50

Need GI50, item CCO/C([O-])=C(\C(=O)c1ccccc1)[n+]1c(C)n(C)c2ccccc21
> 100 µM (inactive)

# ---- query compound ----
Need GI50, item C#C[C@]1(O)CCC2C3CCc4cc(Oc5nc(F)nc(-c6c7cc8ccccc8cc7c7n6CCS7)n5)ccc4C3CCC21C (stereo not given in full)
41.3 µM (inactive)

* * *

# System: U-251
# assay.name: NCI tumour cell line growth inhibition, 48 h
Activity calls are given as the source filed them. No stated cut-off is given here; in the data, active = GI50 up to about 1.1 µM and inactive = higher.
recorded.endpoint: GI50

Solved entries (count: 3):
Need GI50, item C/C1=C\[C@H](C)C[C@H](C)OC(=O)C[C@H](c2ccc(O)cc2)NC(=O)[C@H](Cc2ccc(O)c(I)c2)N(C)C(=O)[C@H](C)NC(=O)[C@@H](C)C1
0.00944 µM (active)

Check CN1C(OCc2ccccc2)c2c(ccc3c2OCO3)C2C=Cc3cc4c(cc3C21)OCO4 (centres undefined) too.
1.51 µM (inactive)

Check Cc1ccc(-n2cc(-c3ccc(Cl)cc3)c3c2N=CN2N=C(c4ccco4)NC32)cc1 (centres undefined) too.
5.46 µM (inactive)

# ---- query molecule ----
Need GI50, item CC(C)(O)c1cc2c(cc1C(C)(C)O)-c1ccccc1-2
> 100 µM (inactive)

* * *

# Tested on: NCI-H460
# assay.name: NCI tumour cell line growth inhibition, 48 h
The source made the active and inactive calls. Rule as the data show it: active = GI50 up to about 1.1 µM and inactive = higher.
recorded.endpoint: GI50

Solved entries (count: 4):
Need GI50, item Cc1cc(C)nc(NS(=O)(=O)c2ccc(Nc3nncc(=O)n3N)cc2)n1
30.1 µM (inactive)

Check Nc1nc(O)c(Br)c(-c2cccc([N+](=O)[O-])c2)n1 too.
> 81.8 µM (inactive)

Check Cc1nn(C(=O)CC(=O)Nc2ccc(Cl)cc2)c(C)c1/N=N/c1ccccc1C(=O)O too.
> 100 µM (inactive)

Check N#CNc1nc(N)c(-c2ccc(Cl)cc2)c(C(=O)Nc2nccs2)n1 too.
> 100 µM (inactive)

---
Need GI50, item CCOC(=O)/C(C#N)=C/c1ccc2c(-c3c(OCC)ccc4cc(/C=C(\C#N)C(=O)OCC)ccc34)c(OCC)ccc2c1
> 100 µM (inactive)

* * *

# System: M14
# assay.name: NCI tumour cell line growth inhibition, 48 h
The source made the active and inactive calls. No stated cut-off is given here; in the data, active = GI50 up to about 1.1 µM and inactive = higher.
recorded.endpoint: GI50

Solved entries (count: 6):
Need GI50, item COc1ccc2c(CCN)c(C(=O)O)[nH]c2c1
> 100 µM (inactive)

Check COc1ccc(NC=O)c(C(=O)CCNC(C)=O)c1 too.
> 100 µM (inactive)

Check Cc1nc2c(s/c(=N\N)n2-c2ccccc2)c(=O)n1C too.
> 100 µM (inactive)

Check O=C1c2ccccc2C(=O)N1CC(O)COc1cccc2ccccc12 (stereo unspecified) too.
> 100 µM (inactive)

Check CCOC(CCCN1CCC2(CC1)C(=O)N(C)CN2c1ccccc1)(OCC)c1ccc(F)cc1 too.
10.7 µM (inactive)

Check O=C(Nc1cc([N+](=O)[O-])cc([N+](=O)[O-])c1)OC1C2CCC1C1OC1C2 (stereo unspecified) too.
> 50 µM (inactive)

---
Need GI50, item CC(=O)CSCc1ccccn1
60.5 µM (inactive)

Check Cc1nn(C(=O)Cc2ccccc2)c2c1C(c1ccc(Cl)cc1)SC(=N)N2 (stereo unspecified) too.
> 100 µM (inactive)

Check O=C1C=CC(=C(c2ccc(O)cc2)c2ccc(O)cc2)C=C1 too.
13.3 µM (inactive)

Check CN(C)Cc1cc(C(C)(C)C)cc(CN(C)C)c1O too.
> 100 µM (inactive)

Check COc1c(CC(C)=O)ccc2c1C(=O)c1ccc(C=O)c(OC(C)=O)c1C2=O too.
12 µM (inactive)

* * *

# System: OVCAR-8
# assay.name: NCI tumour cell line growth inhibition, 48 h
The source made the active and inactive calls. Cut-off read from the data, not from the text of the source: active = GI50 up to about 1.1 µM and inactive = higher.
Bench note: report the call from active, inactive

See these solved cases before continuing.
Recorded call for NC(=O)C1CCCNC1 (centres undefined) ?
inactive

Check CO[C@H]1[C@H](O)[C@H](O[C@H]2CC[C@@]3(C)[C@H](CC[C@@H]4[C@@H]3CC[C@]3(C)[C@@H](C5=CC(=O)OC5)CC[C@]43O)C2)O[C@@H](C)[C@@H]1O too.
active

Check O=C(O)C1=CCCc2ccc3ccccc3c21 too.
inactive

---
Recorded call for C=C1C(=O)O[C@H]2C1C[C@@H](O)/C(C)=C/CC[C@@]1(C)O[C@H]21 (some centres undefined) ?
inactive

Check CCCCCC(=O)N[C@H]1CCc2cc(OC)c(OC)c(OC)c2-c2ccc(SC)c(=O)cc21 too.
active

Check O=C1Sc2sc(=S)sc2SC1c1ccccc1 (centres undefined) too.
inactive

Check COc1ccc(CCCCl)c(C2=NCCc3ccccc32)c1 too.
inactive

Check C#C[C@]1(O)CCC2C3CCc4cc(Oc5nc(F)nc(-c6c7cc8ccccc8cc7c7n6CCS7)n5)ccc4C3CCC21C (some centres undefined) too.
inactive

Check C(=N\C12CC3CC(CC(C3)C1)C2)/C1CCCCC1 too.
inactive

Check C[C@H]1C(=O)O[C@@H]1[C@H]1COC(C)(C)O1 too.
inactive

Check CC(=O)c1ccc2c(c1)C(=O)c1sc(C(C)=O)cc1C2=O too.
active

Check O=c1ccn(COC(COCc2ccccc2)COCc2ccccc2)c(=O)[nH]1 too.
inactive

Check Cc1nn(C(=O)CC(=O)Nc2ccc(Cl)cc2)c(C)c1/N=N/c1ccccc1C(=O)O too.
inactive

Check O=C(N/N=C\c1ccc([N+](=O)[O-])cc1)Nc1ccc2ccccc2c1 too.
inactive

Check CC1CC(=O)N(N(C)C)C(C#N)(C#N)C1(C#N)C#N (centres undefined) too.
inactive

Check CS(=O)(=O)O.[Ag] too.
inactive

Check CC(=O)OC1CC[C@@]2(C)C(C1)CC(OC(C)=O)[C@@H]1C2CC(OC(C)=O)[C@]2(C)C(C(C)CC=C(c3ccc(Cl)cc3)c3ccc(Cl)cc3)CCC12 (some centres undefined) too.
inactive

Check NC(=O)/C(=N\NC(=O)c1cc2ccccc2cc1O)C1C(=O)N(c2ccccc2)N=C1N (centres undefined) too.
inactive

Check C=C(CN(C)C)C(=O)c1ccc(OC)cc1 too.
active
